molecular target: RICK (Homo sapiens); test: General kinase assay protocol (33P-ATP, MBP substrate, filter plate): RICK; format: biochemical; settings: inhibition at concentration 10 μM; read-out: Inhibitory effect on Target RICK
Sequence (O43353 whole entry, species assumed): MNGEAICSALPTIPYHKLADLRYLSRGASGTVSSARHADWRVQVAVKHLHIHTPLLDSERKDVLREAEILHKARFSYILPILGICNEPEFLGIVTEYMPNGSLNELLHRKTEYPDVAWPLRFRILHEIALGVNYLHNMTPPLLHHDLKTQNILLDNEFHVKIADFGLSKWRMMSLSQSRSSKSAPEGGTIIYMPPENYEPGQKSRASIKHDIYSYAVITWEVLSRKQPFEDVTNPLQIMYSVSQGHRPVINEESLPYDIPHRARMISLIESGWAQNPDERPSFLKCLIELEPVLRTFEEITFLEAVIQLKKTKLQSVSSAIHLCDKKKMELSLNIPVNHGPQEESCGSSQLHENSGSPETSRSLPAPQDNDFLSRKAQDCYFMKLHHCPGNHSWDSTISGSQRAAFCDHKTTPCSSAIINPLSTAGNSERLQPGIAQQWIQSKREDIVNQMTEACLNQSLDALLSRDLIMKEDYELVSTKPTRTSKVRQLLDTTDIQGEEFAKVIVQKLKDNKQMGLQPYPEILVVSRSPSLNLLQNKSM
Entries and their inhibition at 10 µM

>>> df
                                   compound         readout_kind  observed_value
0  COc1cc(-c2cncc(Nc3ccc(F)c(Cl)c3)n2)cc(OC)c1OC  inhibition at 10 µM           > 50%

Field inhibition at 10 µM (system: RICK (Homo sapiens)) for entry COc1cc(Nc2cncc(-c3ccc(N)cc3)n2)cc(OC)c1OC = > 75%

Kindly note: RICK (Homo sapiens), Oc1ccc(-c2cncc(Nc3ccc(F)c(Cl)c3)n2)cc1 , inhibition at 10 µM value reported: > 50%

Measured inhibition at 10 µM for this entry CN(C)CCNC(=O)c1cccc(-c2cncc(Nc3ccc(Cl)cc3)n2)c1 on RICK (Homo sapiens): > 50%

Reported inhibition at 10 µM (RICK (Homo sapiens)) for entry Cc1ccc(Nc2cncc(-c3ccc(F)cc3F)n2)cc1NS(C)(=O)=O is > 50%

The compound Oc1cccc(-c2cncc(Nc3ccc(F)c(Cl)c3)n2)c1 on RICK (Homo sapiens): inhibition at 10 µM was > 50%

Record for COc1cc(Nc2cncc(-c3cccc(F)c3)n2)cc(OC)c1OC under target or system RICK (Homo sapiens): inhibition at 10 µM reported as > 50%

Param item: COc1cc(Nc2cncc(-c3ccc4ccccc4c3)n2)cc(OC)c1OC ; param system: RICK (Homo sapiens); output inhibition at 10 µM: > 75%

Measured inhibition at 10 µM for this entry COc1cc(Nc2cncc(-c3cccc(O)c3)n2)cc(OC)c1OC on RICK (Homo sapiens): > 50%
